Reference for the values: ChEMBL document CHEMBL1201862

Tested on: PC-3
Assay: NCI tumour cell line growth inhibition, 48 h
Activity calls are given as the source filed them. Cut-off read from the data, not from the text of the source: active = GI50 up to about 1.1 µM and inactive = higher.

{"compound": "NC(=S)SC1=NC(=O)C2(NN1)c1ccccc1-c1ccccc12", "GI50": "> 10 µM (inactive)"}
{"compound": "COC(=O)Nc1nc2cc(NC(=O)c3cccs3)ccc2[nH]1", "GI50": "30.2 µM (inactive)"}
{"compound": "CCOC(OCC)[C@@H]1C[C@@H]2N(O[C@H](OC3CCCC3(c3ccccc3)c3ccccc3)[C@H](OC(C)=O)[C@@]2(CC)Cc2ccc(OC)c(OC)c2)O1 (stereo not given in full)", "GI50": "> 100 µM (inactive)"}
{"compound": "Oc1ccc(Cn2c(-c3ccc(O)cc3)nc3ccccc32)cc1", "GI50": "> 100 µM (inactive)"}
{"compound": "CC1(C)C(O)C[C@]23CCC[C@](C)(C[C@@H](O)C12)C3 (stereo not given in full)", "GI50": "> 100 µM (inactive)"}
